systemName: Fc-fusion protein of human PSMA (hPSMA-Fc) (Homo sapiens, UniProt Q04609)
Construct: purchased Acro Biosystems PSA-H5264
Sequence (Q04609 44-750 limits assumed): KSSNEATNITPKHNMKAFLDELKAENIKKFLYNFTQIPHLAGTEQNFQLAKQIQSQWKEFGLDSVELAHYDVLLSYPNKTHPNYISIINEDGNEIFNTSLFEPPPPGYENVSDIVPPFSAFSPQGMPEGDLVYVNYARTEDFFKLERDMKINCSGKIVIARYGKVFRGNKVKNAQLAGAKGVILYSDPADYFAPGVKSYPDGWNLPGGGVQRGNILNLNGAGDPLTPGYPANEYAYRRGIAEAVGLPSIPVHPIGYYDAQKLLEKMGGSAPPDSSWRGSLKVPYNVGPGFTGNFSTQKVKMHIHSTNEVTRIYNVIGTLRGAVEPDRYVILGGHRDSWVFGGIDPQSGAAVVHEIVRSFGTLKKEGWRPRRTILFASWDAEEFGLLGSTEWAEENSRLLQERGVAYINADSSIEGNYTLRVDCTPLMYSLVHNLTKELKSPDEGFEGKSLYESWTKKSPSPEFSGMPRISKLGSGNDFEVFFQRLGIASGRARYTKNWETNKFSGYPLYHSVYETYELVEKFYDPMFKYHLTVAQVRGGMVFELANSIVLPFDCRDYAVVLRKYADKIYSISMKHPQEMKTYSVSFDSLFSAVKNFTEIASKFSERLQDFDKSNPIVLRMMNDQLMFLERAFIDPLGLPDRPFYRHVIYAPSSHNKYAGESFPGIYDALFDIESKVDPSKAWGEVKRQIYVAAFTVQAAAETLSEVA
testDetails: Surface plasmon resonance assay (Biacore T200, single cycle kinetic)
Assay type: binding
assayConditions: SPR, hPSMA-Fc, single cycle kinetic, 25° C.; category; read-out: pKD CAT (converted)
Numbered stars: 1 amine (or outer) side, 2 acyl side, 3 side chain; on linkers, the order of the positions; unused ones are H or OH. Bridge positions count the residues as written; N and C are the ends. Square brackets hold non-standard residues; d marks the D form. Peptide text beside a SMILES is read from it. * marks the point of attachment. DOTA = O=C(O)CN1CCN(CC(=O)O)CCN(CC(=O)*)CCN(CC(=O)O)CC1; Arg(Me2a) = CN(C)C(=N)NCCC[C@H](N)C(=O)O; Phe(4-Cl) = N[C@@H](Cc1ccc(Cl)cc1)C(=O)O; Arg(Me) = CNC(=N)NCCC[C@H](N)C(=O)O; X1 = O=C(CC1CCN([*:1])CC1)[*:2]; Lys(Me) = CNCCCC[C@H](N)C(=O)O; Tle = CC(C)(C)[C@H](N)C(=O)O; Aib = CC(C)(N)C(=O)O
measurementName: Kd

Solved cases (4 shown):
1. CC(=O)N[C@H](C(=O)NC(C)(C)C(=O)N[C@@H](Cc1ccccc1)C(=O)N[C@H]1CSSC[C@@H](C(=O)N[C@H](C(=O)N[C@H](C(=O)N[C@@H](CC(=O)O)C(N)=O)[C@@H](C)O)C(C)(C)C)NC(=O)[C@H](CC(N)=O)NC(=O)C(C)(C)NC(=O)[C@H](CCCNC(=N)N)NC(=O)[C@H](CCC(N)=O)NC1=O)[C@@H](C)O [PSM-0210] (Ac-T[Aib]FCQR[Aib]NC[Tle]TD-NH2; disulfide 4-9): 12.6 to 126 nM
2. C[C@@H](O)[C@H](NC(=O)[C@@H](NC(=O)[C@@H]1CSSC[C@H](NC(=O)[C@H](Cc2ccc(Cl)cc2)NC(=O)C(C)(C)NC(=O)[C@@H](NC(=O)CC2CCN(C(=O)CN3CCN(CC(=O)O)CCN(CC(=O)O)CCN(CC(=O)O)CC3)CC2)[C@@H](C)O)C(=O)N[C@@H](CCCCN)C(=O)N[C@@H](CCCNC(=N)N)C(=O)N[C@H](CCC(=O)O)C(=O)N[C@@H](CC(N)=O)C(=O)N1)C(C)(C)C)C(N)=O [PSM-0260] ({DOTA}-[X1]T[Aib][Phe(4-Cl)]CKR[dE]NC[Tle]T-NH2; disulfide 5-10): < 12.6 nM
3. CCCC[C@H](NC(=O)[C@@H]1CSSC[C@H](NC(=O)[C@H](Cc2ccccc2)NC(=O)[C@H](C)NC(=O)[C@@H](NC(C)=O)[C@@H](C)O)C(=O)N[C@@H](CCCCN)C(=O)N[C@@H](CCCNC(=N)N)C(=O)N[C@@H](C)C(=O)N[C@@H](CC(N)=O)C(=O)N1)C(=O)N[C@@H](C(=O)N[C@H](CC(=O)O)C(N)=O)[C@H](C)O: > 501 nM
4. CNCCCC[C@@H]1NC(=O)[C@@H](NC(=O)[C@H](Cc2ccc(Cl)cc2)NC(=O)C(C)(C)NC(=O)[C@@H](NC(=O)CC2CCN(C(=O)CN3CCN(CC(=O)O)CCN(CC(=O)O)CCN(CC(=O)O)CC3)CC2)[C@@H](C)O)CSSC[C@@H](C(=O)N[C@H](C(=O)N[C@H](C(N)=O)[C@@H](C)O)C(C)(C)C)NC(=O)[C@H](CC(N)=O)NC(=O)[C@@H](C)NC(=O)[C@H](CCCNC(=N)NC)NC1=O [PSM-0246] ({DOTA}-[X1]T[Aib][Phe(4-Cl)]C[Lys(Me)][Arg(Me)][dA]NC[Tle]T-NH2; disulfide 5-10): < 12.6 nM

// switching to the query compound
The recorded Kd for CNCCCC[C@@H]1NC(=O)[C@@H](NC(=O)[C@H](Cc2ccc(Cl)cc2)NC(=O)C(C)(C)NC(=O)[C@@H](NC(=O)CC2CCN(C(=O)CN3CCN(CC(=O)O)CCN(CC(=O)O)CCN(CC(=O)O)CC3)CC2)[C@@H](C)O)CSSC[C@@H](C(=O)N[C@H](C(=O)N[C@H](C(N)=O)[C@@H](C)O)C(C)(C)C)NC(=O)[C@H](CC(N)=O)NC(=O)C(C)(C)NC(=O)[C@H](CCCNC(=N)N(C)C)NC1=O [PSM-0247] ({DOTA}-[X1]T[Aib][Phe(4-Cl)]C[Lys(Me)][Arg(Me2a)][Aib]NC[Tle]T-NH2; disulfide 5-10) is < 12.6 nM

Source of measurements: patent US20260083865A1
